Just for reference, patent US5128359A is where these values come from.

In this section we review reported Ki values for a set of compounds.
Target: TXA2 receptors of human platelets (Homo sapiens, UniProt P21731)
Construct: Human platelets incubate in the presence of a single concentration; endogenous in cells
Sequence (P21731 1-343): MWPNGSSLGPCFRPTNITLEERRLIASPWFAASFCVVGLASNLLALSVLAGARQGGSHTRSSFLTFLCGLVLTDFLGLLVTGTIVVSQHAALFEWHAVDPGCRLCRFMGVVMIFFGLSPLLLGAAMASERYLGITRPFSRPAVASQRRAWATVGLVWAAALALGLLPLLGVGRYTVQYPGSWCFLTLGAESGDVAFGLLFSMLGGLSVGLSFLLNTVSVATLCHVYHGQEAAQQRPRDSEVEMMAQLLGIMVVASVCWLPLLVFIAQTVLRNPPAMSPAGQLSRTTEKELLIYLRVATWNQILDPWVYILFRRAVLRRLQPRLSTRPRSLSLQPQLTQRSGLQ
Assay: displacement of radioligand [^125 I]PTA-OH specifically bound to the TXA2 receptors of human platelets
Details: determined according to the formula of CHENG and PRUSOFF, read-out: Ki (inhibition constant)

| COMPOUND | Ki / nM |
| --- | --- |
| CC(C)(CC(=O)O)Cc1nc2cc(Cl)ccc2n1Cc1ccc(Br)cc1 | 13 |
| CC(C)(CC(=O)O)Cc1nc2ccccc2n1Cc1ccc(Cl)cc1 | 31 |
| CC(C)(CC(=O)O)Cc1nc2cc(Cl)ccc2n1Cc1ccc(Cl)cc1 | 23.2 |
| CC(C)(CC(=O)O)Cc1nc2ccccc2n1Cc1ccc(Br)cc1F | 11.4 |
| O=C(O)CC1(Cc2nc3cc(F)ccc3n2Cc2ccc(Cl)cc2)CCCCC1 | 807 |
| CC(C)(CC(=O)O)Cc1nc2cc(Cl)cnc2n1Cc1ccc(Cl)cc1 | 12.5 |
| O=C(O)[C@@H]1CC[C@H]1c1nc2cc(F)ccc2n1Cc1ccc(Cl)cc1 (relative stereo) | 1180 |
